ASSAYED SYSTEM: Neuropilin-1 (Rattus norvegicus) (UniProt Q9QWJ9)
MEASUREMENT DESCRIPTION: Inhibition of biotinylated VEGF-A165 binding to rat NRP1/FC chimera at 1 uM after 40 mins by ELISA relative to control
Residues, ends and D or L forms follow the SMILES beside them.
MEASURED QUANTITY: inhibition (%)

>>> endpoint_value("C[C@H](NC(=O)[C@H](CCCCN)NC(=O)[C@@H](N)CCCCNC(=O)C(N)CCCCN=C(N)N)C(=O)N[C@@H](CCCNC(=N)N)C(=O)O (stereo not given in full) (HELM PEPTIDE1{K.K.A.R}|PEPTIDE2{[N=C(N)NCCCCC(N)C(=O)[*:2]]}$PEPTIDE1,PEPTIDE2,1:R3-1:R2$$$V2.0)")
22.2
>>> endpoint_value("C[C@H](NC(=O)[C@H](CCN)NC(=O)[C@@H](N)CCCCNC(=O)C(N)CCCCN=C(N)N)C(=O)N[C@@H](CCCNC(=N)N)C(=O)O (stereo not given in full) (HELM PEPTIDE1{K.[Dab].A.R}|PEPTIDE2{[N=C(N)NCCCCC(N)C(=O)[*:2]]}$PEPTIDE1,PEPTIDE2,1:R3-1:R2$$$V2.0)")
47.3
>>> endpoint_value("N=C(N)NCCC[C@H](NC(=O)[C@@H]1CCCN1C(=O)[C@@H]1CCCN1C(=O)[C@@H](N)CCCCNC(=O)C(N)CCCCN=C(N)N)C(=O)O (stereo not given in full) (HELM PEPTIDE1{K.P.P.R}|PEPTIDE2{[N=C(N)NCCCCC(N)C(=O)[*:2]]}$PEPTIDE1,PEPTIDE2,1:R3-1:R2$$$V2.0)")
41.4
>>> endpoint_value("N=C(N)NCCC[C@H](NC(=O)[C@H](CN)NC(=O)[C@@H]1CCCN1C(=O)[C@@H](N)CCCCNC(=O)C(N)CCCCN=C(N)N)C(=O)O (stereo not given in full) (HELM PEPTIDE1{K.P.[NC[C@H](N[*:1])C(=O)[*:2]].R}|PEPTIDE2{[N=C(N)NCCCCC(N)C(=O)[*:2]]}$PEPTIDE1,PEPTIDE2,1:R3-1:R2$$$V2.0)")
23.6
>>> endpoint_value("N=C(N)NCCC[C@H](NC(=O)[C@H](CCN)NC(=O)[C@@H]1CCCN1C(=O)[C@@H](N)CCCCNC(=O)C(N)CCCCN=C(N)N)C(=O)O (stereo not given in full) (HELM PEPTIDE1{K.P.[Dab].R}|PEPTIDE2{[N=C(N)NCCCCC(N)C(=O)[*:2]]}$PEPTIDE1,PEPTIDE2,1:R3-1:R2$$$V2.0)")
82.6

====

ASSAYED SYSTEM: Neuropilin-1 (Rattus norvegicus) (UniProt Q9QWJ9)
MEASUREMENT DESCRIPTION: Inhibition of biotinylated VEGF-A165 binding to rat NRP1/FC chimera at 0.3 uM after 40 mins by ELISA relative to control
Non-standard residues stand in square brackets, D forms with d. Residues, ends and D or L forms follow the SMILES beside them. *: point of attachment. X2 = N=C(N)NCCCCCCC(=O)*; Dab = NCC[C@H](N)C(=O)O
Recorded inhibition for the following molecules
MEASURED QUANTITY: inhibition (%)

>>> endpoint_value("N=C(N)NCCC[C@H](NC(=O)[C@@H]1CCCN1C(=O)[C@H](CCCN)NC(=O)[C@@H](N)CCCCNC(=O)C(N)CCCCN=C(N)N)C(=O)O (stereo not given in full) (HELM PEPTIDE1{K.[Orn].P.R}|PEPTIDE2{[N=C(N)NCCCCC(N)C(=O)[*:2]]}$PEPTIDE1,PEPTIDE2,1:R3-1:R2$$$V2.0)")
10.4
>>> endpoint_value("N=C(N)NCCC[C@H](NC(=O)[C@@H]1CCCN1C(=O)[C@@H]1CCCN1C(=O)[C@@H](N)CCCCN)C(=O)O (H-KPPR-OH)")
10.1
>>> endpoint_value("N=C(N)NCCCCCCC(=O)NCCCC[C@H](N)C(=O)N1CCC[C@H]1C(=O)N[C@@H](CCN)C(=O)N[C@@H](CCCNC(=N)N)C(=O)O (H-K(X2)P[Dab]R-OH)")
25.5
>>> endpoint_value("C[C@H](NC(=O)[C@@H](N)CCCCNC(=O)C(N)CCCCN=C(N)N)C(=O)N1CCC[C@H]1C(=O)N[C@@H](CCCNC(=N)N)C(=O)O (stereo not given in full) (HELM PEPTIDE1{K.A.P.R}|PEPTIDE2{[N=C(N)NCCCCC(N)C(=O)[*:2]]}$PEPTIDE1,PEPTIDE2,1:R3-1:R2$$$V2.0)")
3.9
>>> endpoint_value("C[C@H](NC(=O)[C@H](CCN)NC(=O)[C@@H](N)CCCCNC(=O)C(N)CCCCN=C(N)N)C(=O)N[C@@H](CCCNC(=N)N)C(=O)O (stereo not given in full) (HELM PEPTIDE1{K.[Dab].A.R}|PEPTIDE2{[N=C(N)NCCCCC(N)C(=O)[*:2]]}$PEPTIDE1,PEPTIDE2,1:R3-1:R2$$$V2.0)")
16.1

====

ASSAYED SYSTEM: Neuropilin-1 (Rattus norvegicus) (UniProt Q9QWJ9)
MEASUREMENT DESCRIPTION: Inhibition of biotinylated VEGF-A165 binding to rat NRP1/FC chimera at 0.3 uM after 40 mins by ELISA relative to control
Residues, ends and D or L forms follow the SMILES beside them.
Recorded inhibition for the following molecules
MEASURED QUANTITY: inhibition (%)

>>> endpoint_value("C[C@H](NC(=O)[C@@H]1CCCN1C(=O)[C@@H](N)CCCCNC(=O)C(N)CCCCN=C(N)N)C(=O)N[C@@H](CCCNC(=N)N)C(=O)O (some centres not stated) (HELM PEPTIDE1{K.P.A.R}|PEPTIDE2{[N=C(N)NCCCCC(N)C(=O)[*:2]]}$PEPTIDE1,PEPTIDE2,1:R3-1:R2$$$V2.0)")
54.2
>>> endpoint_value("C[C@H](NC(=O)[C@H](C)NC(=O)[C@@H](N)CCCCNC(=O)C(N)CCCCN=C(N)N)C(=O)N[C@@H](CCCNC(=N)N)C(=O)O (some centres not stated) (HELM PEPTIDE1{K.A.A.R}|PEPTIDE2{[N=C(N)NCCCCC(N)C(=O)[*:2]]}$PEPTIDE1,PEPTIDE2,1:R3-1:R2$$$V2.0)")
16.9

====

ASSAYED SYSTEM: Neuropilin-1 (Rattus norvegicus)
MEASUREMENT DESCRIPTION: Inhibition of biotinylated VEGF-A165 binding to rat NRP1/FC chimera at 0.3 uM after 40 mins by ELISA relative to control
Non-standard residues stand in square brackets, D forms with d. Residues, ends and D or L forms follow the SMILES beside them. *: point of attachment. X1 = N=C(N)NCCCCCCCCCCC(=O)*; Dab = NCC[C@H](N)C(=O)O
Assign class by inhibition: not lower than 60% means 1 (yes); lower than 60% means 0 (no).

>>> class_assignment("N=C(N)NCCC[C@H](NC(=O)[C@H](CCN)NC(=O)[C@@H]1CCCN1C(=O)[C@@H](N)CCCCNC(=O)C(N)CCCCN=C(N)N)C(=O)O (some centres not stated) (HELM PEPTIDE1{K.P.[Dab].R}|PEPTIDE2{[N=C(N)NCCCCC(N)C(=O)[*:2]]}$PEPTIDE1,PEPTIDE2,1:R3-1:R2$$$V2.0)")
"1 (yes)"
>>> class_assignment("N=C(N)NCCCCCCCCCCC(=O)NCCCC[C@H](N)C(=O)N1CCC[C@H]1C(=O)N[C@@H](CCN)C(=O)N[C@@H](CCCNC(=N)N)C(=O)O (H-K(X1)P[Dab]R-OH)")
"0 (no)"
>>> class_assignment("N=C(N)NCCC[C@H](NC(=O)[C@H](CCN)NC(=O)[C@@H]1CCCN1C(=O)[C@@H](N)CCCNC(=O)C(N)CCCCN=C(N)N)C(=O)O (some centres not stated) (HELM PEPTIDE1{[Orn].P.[Dab].R}|PEPTIDE2{[N=C(N)NCCCCC(N)C(=O)[*:2]]}$PEPTIDE1,PEPTIDE2,1:R3-1:R2$$$V2.0)")
"0 (no)"
>>> class_assignment("N=C(N)NCCCC(N)C(=O)NCCCC[C@H](N)C(=O)N1CCC[C@H]1C(=O)N[C@@H](CCN)C(=O)N[C@@H](CCCNC(=N)N)C(=O)O (some centres not stated) (HELM PEPTIDE1{K.P.[Dab].R}|PEPTIDE2{[N=C(N)NCCCC(N)C(=O)[*:2]]}$PEPTIDE1,PEPTIDE2,1:R3-1:R2$$$V2.0)")
"0 (no)"
>>> class_assignment("N=C(N)NCCC[C@H](NC(=O)[C@H](CCCCN)NC(=O)[C@@H]1CCCN1C(=O)[C@@H](N)CCCCNC(=O)C(N)CCCCN=C(N)N)C(=O)O (some centres not stated) (HELM PEPTIDE1{K.P.K.R}|PEPTIDE2{[N=C(N)NCCCCC(N)C(=O)[*:2]]}$PEPTIDE1,PEPTIDE2,1:R3-1:R2$$$V2.0)")
"0 (no)"
